Just for reference, patent US20220274980A1 is where these values come from.

target: ENL YEATS domain (association with H3K27cr) (Homo sapiens); assay: biochemical; settings: ENL (YEATS)-H3K27cr HTRF (IC50, μM), Table 1
Sequence (Q03111 1-148): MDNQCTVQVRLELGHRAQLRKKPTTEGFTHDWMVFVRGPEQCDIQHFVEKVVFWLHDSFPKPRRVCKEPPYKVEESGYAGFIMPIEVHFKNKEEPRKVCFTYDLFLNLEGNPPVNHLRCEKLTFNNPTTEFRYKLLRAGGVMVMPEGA
Please provide measured IC50 for the entries that follow.

If you can, please state the reported IC50 value of `CC(C)NC(=O)c1ccc2nc(-c3cccc(NS(=O)(=O)NCCCN4CCOCC4)c3)cn2c1` . 0.55 µM

Another compound to check: `O=C(O)COC1CCN(CCC(=O)Nc2cccc(-c3cn4cc(C(=O)NC5CCC5)ccc4n3)c2)CC1` 0.243 µM

Another compound to check: `CO[C@@H]1CC[C@H]1NC(=O)c1ccc2nc(-c3ccccc3)cn2c1` 61 µM

Another compound to check: CC1CCCCN1CCNS(=O)(=O)Nc1cccc(-c2cn3cc(C(=O)NC4CCC4)ccc3n2)c1 (centres unmarked) 0.163 µM

Another compound to check: `CC(C)NC(=O)c1ccc2nc(-c3cccc(NS(=O)(=O)NCCC(N)=O)c3)cn2c1` 0.52 µM

Another compound to check: `O=C(NC1CC(F)(F)C1)c1ccc2nc(-c3ccccc3)cn2c1` > 50 µM

Another compound to check: `CC(C)NC(=O)c1ccc2nc(-c3cccc(NS(=O)(=O)NC[C@H]4CC[C@H](C(=O)O)CC4)c3)cn2c1` 0.32 µM

Another compound to check: `O=C(CCN1CCCCC1)Nc1cccc(-c2cn3cc(C(=O)NC4CCC4)ccc3n2)c1` 0.478 µM
